Let's go through some recorded Ki values for human 5-HT2A receptor (Homo sapiens (Human), UniProt P28223) together.
Form entry: enter the amount, then its unit.

Worked examples, 6 molecules total:
| item smiles | subject of test | assay readout | value measured |
| --- | --- | --- | --- |
| O=C(C[C@H]1COCCO1)N[C@H]1CC[C@H](CCN2CCC(c3cccc4c3CCO4)CC2)CC1 | human 5-HT2A receptor (Homo sapiens (Human), UniProt P28223) | Ki | 19.4 nM |
| CS(=O)(=O)N[C@H]1CC[C@H](CCN2CCC(c3cccc4c3CCO4)CC2)CC1 | human 5-HT2A receptor (Homo sapiens (Human), UniProt P28223) | Ki | 35.2 nM |
| CC(C)(C)Oc1ccc(C(=O)N[C@H]2CC[C@H](CCN3CCC(c4cccc5c4CCO5)CC3)CC2)cc1 | human 5-HT2A receptor (Homo sapiens (Human), UniProt P28223) | Ki | 42.8 nM |
| O=C(N[C@H]1CC[C@H](CCN2CCC(c3cccc4c3CCO4)CC2)CC1)C1(O)CC1 | human 5-HT2A receptor (Homo sapiens (Human), UniProt P28223) | Ki | 9.3 nM |
| CS(=O)(=O)c1ccc(C(=O)N[C@H]2CC[C@H](CCN3CCC(c4cccc5c4CCO5)CC3)CC2)cc1 | human 5-HT2A receptor (Homo sapiens (Human), UniProt P28223) | Ki | 14.7 nM |
| O=C(N[C@H]1CC[C@H](CCN2CCC(c3cccc4c3CCO4)CC2)CC1)c1ccc(Cl)cc1 | human 5-HT2A receptor (Homo sapiens (Human), UniProt P28223) | Ki | 18.1 nM |

Q) Please report the recorded Ki for O=C(CC1CC1)N[C@H]1CC[C@H](CCN2CCC(c3cccc4c3CCO4)CC2)CC1 .
A) 28.7 nM

Q) Sample COCC(=O)N[C@H]1CC[C@H](CCN2CCC(c3cccc4occc34)CC2)CC1 — what was its Ki?
A) 4.2 nM

----------
// each record: one item and its pKi for human D3 receptor (Homo sapiens (Human))
Answer as the number alone; pKi is minus log10 of concentration in mol/L.

Q) Need pKi of O=C(CCO)N[C@H]1CC[C@H](CCN2CCC(c3cccc4c3CCO4)CC2)CC1 [Example 27] , thanks.
A) 8.19

----------
Documented melting point across a set of molecules

These solved cases illustrate the format of a correct answer.
| molecule | melting point |
| --- | --- |
| CC(C)(C)CC(=O)N[C@H]1CC[C@H](CCN2CCC(c3cccc4c3CCO4)CC2)CC1 [Example 59] | 193 °C |
| O=S(=O)(N[C@H]1CC[C@H](CCN2CCC(c3cccc4c3CCO4)CC2)CC1)c1ccc(F)cc1 [Example 50] | 134 °C |
| O=C(N[C@H]1CC[C@H](CCN2CCC(c3cccc4c3CCO4)CC2)CC1)c1ccc2ncccc2c1 [Example 78] | 238 °C |

Query molecule follows.
Q) Need melting point, item Cc1cc(C(=O)N[C@H]2CC[C@H](CCN3CCC(c4cccc5c4CCO5)CC3)CC2)on1 [Example 41]
A) 215 °C

----------
target: human D2 receptor (Homo sapiens (Human), UniProt P14416); test: Radioligand binding ([3H]-spiperone) to cloned receptors expressed in HEK-293 EBNA cells; details: HEK293 EBNA cell membranes expressing human D2
Sequence (P14416 whole entry): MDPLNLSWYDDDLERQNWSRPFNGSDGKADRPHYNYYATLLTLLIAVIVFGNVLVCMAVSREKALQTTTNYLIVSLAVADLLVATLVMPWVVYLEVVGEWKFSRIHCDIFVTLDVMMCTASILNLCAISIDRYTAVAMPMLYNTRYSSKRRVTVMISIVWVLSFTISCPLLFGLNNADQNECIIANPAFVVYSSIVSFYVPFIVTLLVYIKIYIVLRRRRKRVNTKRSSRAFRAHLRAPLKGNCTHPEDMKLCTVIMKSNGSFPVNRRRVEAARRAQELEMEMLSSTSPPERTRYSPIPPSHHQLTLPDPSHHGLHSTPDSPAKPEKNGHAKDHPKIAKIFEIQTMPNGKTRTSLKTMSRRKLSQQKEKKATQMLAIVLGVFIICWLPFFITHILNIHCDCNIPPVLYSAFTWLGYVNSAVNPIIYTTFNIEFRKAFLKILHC
assay readout: pKi
pKi here is simply -log10 of the concentration when that concentration is written in mol/L.

| compound | subject of test | pKi |
| --- | --- | --- |
| O=C(CC1COC1)N[C@H]1CC[C@H](CCN2CCC(c3cccc4c3CCO4)CC2)CC1 [Example 80] | human D2 receptor (Homo sapiens (Human), UniProt P14416) | 6.71 |
| O=C(CC(F)(F)F)N[C@H]1CC[C@H](CCN2CCC(c3cccc4c3CCO4)CC2)CC1 [Example 18] | human D2 receptor (Homo sapiens (Human), UniProt P14416) | 6.46 |
| O=C(CC1CCOCC1)N[C@H]1CC[C@H](CCN2CCC(c3ccc(F)c4occc34)CC2)CC1 [Example 66] | human D2 receptor (Homo sapiens (Human), UniProt P14416) | 6.21 |

Q) For the compound shown here, CC[C@@H](O)CC(=O)N[C@H]1CC[C@H](CCN2CCC(c3cccc4c3CCO4)CC2)CC1 [Example 81] , give the reported pKi.
A) 6.45

Q) # pKi lookup, item COCCC(=O)N[C@H]1CC[C@H](CCN2CCC(c3ccc(F)c4occc34)CC2)CC1 [Example 67]
A) 6.21

Q) Consider the compound CC(=O)N[C@H]1CC[C@H](CCN2CCC(c3cccc4c3CCO4)CC2)CC1 [Example 5] and give its measured pKi.
A) 6.53

Q) Requested field: pKi. Item: Cc1ccc(C(=O)N[C@H]2CC[C@H](CCN3CCC(c4cccc5c4CCO5)CC3)CC2)cn1 [Example 42]
A) 6.82

Q) Sample Cc1nc(-c2ccc(C(=O)N[C@H]3CC[C@H](CCN4CCC(c5cccc6c5CCO6)CC4)CC3)cc2)no1 [Example 69] — what was its pKi?
A) 5.43

----------
biological target: human D2 receptor (Homo sapiens (Human)); assay: Radioligand binding ([3H]-spiperone) to cloned receptors expressed in HEK-293 EBNA cells; details: HEK293 EBNA cell membranes expressing human D2
assay readout: Ki (nM)
Write down the numeric answer in nM and omit the unit.

Q) Which Ki value is on record for CN(C)S(=O)(=O)N[C@H]1CC[C@H](CCN2CCC(c3cccc4c3CCO4)CC2)CC1 ?
A) 251

Q) Using the record for O=C(N[C@H]1CC[C@H](CCN2CCC(c3cccc4c3CCO4)CC2)CC1)c1ccc(C(F)(F)F)cc1 , report its Ki.
A) 1460

Q) Give the measured Ki of O=C(N[C@H]1CC[C@H](CCN2CCC(c3cccc4occc34)CC2)CC1)C1CCOCC1 .
A) 305

Q) Tell me the measured Ki of CS(=O)(=O)c1ccc(C(=O)N[C@H]2CC[C@H](CCN3CCC(c4cccc5c4CCO5)CC3)CC2)cc1 , please.
A) 162

----------
Simple rule here: melting point less than 200 °C is rule met, otherwise rule not met.

| item smiles | group |
| --- | --- |
| O=C(CC1CCOCC1)N[C@H]1CC[C@H](CCN2CCC(c3cccc4occc34)CC2)CC1 | rule met |

Attention now turns to another entry.
Q) Does the reported melting point of CS(=O)(=O)c1ccc(C(=O)N[C@H]2CC[C@H](CCN3CCC(c4cccc5c4CCO5)CC3)CC2)cc1 stay below 200 °C?
A) rule not met

----------
Please mark 1 (yes) if the recorded melting point is equal to or greater than 200 °C, and 0 (no) if it falls below.

Previously resolved entries follow.
| compound | group |
| --- | --- |
| O=C(N[C@H]1CC[C@H](CCN2CCC(c3cccc4c3CCO4)CC2)CC1)c1ccc2c(c1)OCO2 | 1 (yes) |
| CC(C)(C)Oc1ccc(C(=O)N[C@H]2CC[C@H](CCN3CCC(c4cccc5c4CCO5)CC3)CC2)cc1 | 1 (yes) |

Q) Can CC(C)C(=O)N[C@H]1CC[C@H](CCN2CCC(c3cccc4c3CCO4)CC2)CC1 be said to have melting point at or above 200 °C?
A) 1 (yes)

Q) Can CS(=O)(=O)N[C@H]1CC[C@H](CCN2CCC(c3cccc4c3CCO4)CC2)CC1 be said to have melting point at or above 200 °C?
A) 0 (no)

Q) Threshold query (melting point >= 200 °C) on CC(=O)N[C@H]1CC[C@H](CCN2CCC(c3cccc4occc34)CC2)CC1
A) 0 (no)

Q) Is it the case that CC(C)(O)CC(=O)N[C@H]1CC[C@H](CCN2CCC(c3cccc4c3CCO4)CC2)CC1 has melting point reaching or exceeding 200 °C?
A) 0 (no)

Q) Exam item: decide whether the reported melting point for O=C(N[C@H]1CC[C@H](CCN2CCC(c3cccc4c3CCO4)CC2)CC1)c1ccccc1 is at least 200 °C.
A) 1 (yes)

Q) Determine whether this compound has melting point no lower than 200 °C: O=C(N[C@H]1CC[C@H](CCN2CCC(c3cccc4c3CCO4)CC2)CC1)c1ccc(C(F)(F)F)cc1
A) 1 (yes)

Q) // inclusive: melting point at least 200 °C? input: O=C(N[C@H]1CC[C@H](CCN2CCC(c3cccc4c3CCO4)CC2)CC1)C(F)(F)F
A) 0 (no)

Q) Check the entry CCC(C)C(=O)N[C@H]1CC[C@H](CCN2CCC(c3cccc4c3CCO4)CC2)CC1 (mixture of isomers) : does melting point equal or exceed 200 °C?
A) 1 (yes)

Q) Quick check, melting point >= 200 °C? O=C(CC1CCOCC1)N[C@H]1CC[C@H](CCN2CCC(c3ccc(F)c4occc34)CC2)CC1
A) 0 (no)

Q) Form field: melting point at least 200 °C? Entry: CN(C)S(=O)(=O)N[C@H]1CC[C@H](CCN2CCC(c3cccc4c3CCO4)CC2)CC1
A) 0 (no)

Q) Item O=C(C[C@H]1CCCO1)N[C@H]1CC[C@H](CCN2CCC(c3cccc4c3CCO4)CC2)CC1 with melting point of 200 °C or above?
A) 0 (no)

Q) State whether the measured melting point reaches 200 °C, counting equality as reaching it, for CC(C)(C)c1ccc(C(=O)N[C@H]2CC[C@H](CCN3CCC(c4cccc5c4CCO5)CC3)CC2)cc1
A) 1 (yes)

Q) Test whether the compound O=C(N[C@H]1CC[C@H](CCN2CCC(c3cccc4occc34)CC2)CC1)C1CCOCC1 records melting point of 200 °C or higher.
A) 1 (yes)
